System: DLD-1
Experiment: cells
Type: functional, cell-based
Settings: Homo sapiens, DLD-1, 24 h
Description: Anticancer activity against human DLD-1 cells assessed as cell growth inhibition measured after 24 hrs by MTT assay
So I've got a bunch of molecules here, and I need their IC50 values.
Numbers only, in µM.

Observe how each entry below is paired with its result.
compound_structure_string=COc1cc2c3cc(C)c4c(c3n(Cc3cccc(C)c3)c2cc1OC)C=CC(C)(C)O4 readout_name=IC50 quantitative_result=73.4
compound_structure_string=COc1cc2c3cc(C)c4c(c3n(C/C(I)=C\I)c2cc1OC)C=CC(C)(C)O4 readout_name=IC50 quantitative_result=8.5
compound_structure_string=COc1ccc2c(c1)c1cc(C)c3c(c1n2Cc1cc(F)ccc1F)C=CC(C)(C)O3 readout_name=IC50 quantitative_result=54.2

Hi there! I need IC50 for each item below, if you can.
1. COc1ccc2[nH]c3c4c(c(C=O)cc3c2c1)OC(C)(C)C=C4
2. C=CCn1c2cc(OC)c(OC)cc2c2cc(C)c3c(c21)C=CC(C)(C)O3
3. COc1ccc2c(c1)c1cc(C)c3c(c1n2Cc1ccccc1)C=CC(C)(C)O3
4. COc1cccc2c1C(=O)c1c(O)c3c(c(O)c1C2=O)C[C@@](O)(C(=O)CO)C[C@@H]3O[C@H]1C[C@H](N)[C@H](O)[C@H](C)O1

[54.7, 75.3, 52.8, 10.2]

----------
So I've got a bunch of compounds here, and I need their IC50 values.
Tested on: DLD-1
Assay: cells
Type: functional, cell-based
Conditions: Homo sapiens, DLD-1, 24 h
Answers are plain numbers, in µM.

compound_structure_string=COc1cccc(Cn2c3cc(OC)c(OC)cc3c3cc(C)c4c(c32)C=CC(C)(C)O4)c1 quantitative_result=56.1

Hi there! I need IC50 for each item below, if you can.
1. COc1cc2c3cc(C)c4c(c3n(Cc3cc(Cl)ccc3Cl)c2cc1OC)C=CC(C)(C)O4
2. COc1cc2c3cc(C)c4c(c3n(Cc3ccccc3)c2cc1OC)C=CC(C)(C)O4
3. COc1ccc2c(c1)c1cc(C)c3c(c1n2Cc1ccc(F)cc1F)C=CC(C)(C)O3

35.4
42.1
34.1

Hi there! I need IC50 for each item below, if you can.
1. COc1ccc2c(c1)c1cc(C)c3c(c1n2Cc1cccc(C)c1)C=CC(C)(C)O3
2. COc1cc2c3cc(C)c4c(c3n(Cc3ccccc3Br)c2cc1OC)C=CC(C)(C)O4
3. C#CCn1c2ccc(OC)cc2c2cc(C)c3c(c21)C=CC(C)(C)O3

1: 73.1; 2: 35.9; 3: 50.1

----------
So I've got a bunch of compounds here, and I need their pIC50 values.
System: HepG2
Test: cells
Assay type: functional, cell-based
Settings: Homo sapiens, HepG2, 24 h
Description: Anticancer activity against human HepG2 cells assessed as cell growth inhibition measured after 24 hrs by MTT assay
Numbers only, as −log10 of the molar value.

Observe how each entry below is paired with its result.
compound_structure_string=COc1ccc2c(c1)c1cc(C)c3c(c1n2Cc1cccc(C)c1)C=CC(C)(C)O3 measurement_target=HepG2 quantitative_result=4.46
compound_structure_string=COc1ccc2c(c1)c1cc(C)c3c(c1n2Cc1cc(F)ccc1F)C=CC(C)(C)O3 measurement_target=HepG2 quantitative_result=5.04
compound_structure_string=COc1ccc2c(c1)c1cc(C)c3c(c1n2Cc1ccc(F)cc1F)C=CC(C)(C)O3 measurement_target=HepG2 quantitative_result=4.43
compound_structure_string=COc1cc2c3cc(C)c4c(c3n(Cc3cc(Cl)ccc3Cl)c2cc1OC)C=CC(C)(C)O4 measurement_target=HepG2 quantitative_result=4.47
compound_structure_string=COc1cc2c3cc(C)c4c(c3n(Cc3ccccc3)c2cc1OC)C=CC(C)(C)O4 measurement_target=HepG2 quantitative_result=4.33
compound_structure_string=COc1cccc2c1C(=O)c1c(O)c3c(c(O)c1C2=O)C[C@@](O)(C(=O)CO)C[C@@H]3O[C@H]1C[C@H](N)[C@H](O)[C@H](C)O1 measurement_target=HepG2 quantitative_result=5.10
compound_structure_string=COc1ccc2[nH]c3c4c(c(C=O)cc3c2c1)OC(C)(C)C=C4 measurement_target=HepG2 quantitative_result=4.48
compound_structure_string=COc1ccc2c(c1)c1cc(C)c3c(c1n2Cc1ccccc1Br)C=CC(C)(C)O3 measurement_target=HepG2 quantitative_result=4.80
compound_structure_string=COc1cc2[nH]c3c4c(c(C=O)cc3c2cc1OC)OC(C)(C)C=C4 measurement_target=HepG2 quantitative_result=4.45
compound_structure_string=COc1ccc2c(c1)c1cc(C=O)c3c(c1n2Cc1ccccc1)C=CC(C)(C)O3 measurement_target=HepG2 quantitative_result=4.37

Hi there! I need pIC50 for each item below, if you can.
1. COc1cc2c3cc(C)c4c(c3n(C/C(I)=C\I)c2cc1OC)C=CC(C)(C)O4
2. C=CCn1c2cc(OC)c(OC)cc2c2cc(C)c3c(c21)C=CC(C)(C)O3
3. COc1cccc(Cn2c3cc(OC)c(OC)cc3c3cc(C)c4c(c32)C=CC(C)(C)O4)c1
4. COc1cc2c3cc(C)c4c(c3n(Cc3cccc(C)c3)c2cc1OC)C=CC(C)(C)O4
5. COc1cc2c3cc(C)c4c(c3n(Cc3ccccc3Br)c2cc1OC)C=CC(C)(C)O4
6. COc1ccc2c(c1)c1cc(C)c3c(c1n2Cc1ccccc1)C=CC(C)(C)O3

1. 4.81
2. 4.37
3. 4.38
4. 5.02
5. 5.09
6. 4.38

Which pIC50 reading was recorded for the compound C#CCn1c2cc(OC)c(OC)cc2c2cc(C)c3c(c21)C=CC(C)(C)O3 ?
4.41

----------
System: DLD-1
Test: cells
Format: functional, cell-based
Conditions: Homo sapiens, DLD-1, 24 h
So I've got a bunch of compounds here, and I need their IC50 values.

Observe how each entry below is paired with its result.
compound_structure_string=COc1cccc(Cn2c3cc(OC)c(OC)cc3c3cc(C=O)c4c(c32)C=CC(C)(C)O4)c1 result="> 100 µM"
compound_structure_string=COc1ccc2c(c1)c1cc(C)c3c(c1n2Cc1ccccc1Br)C=CC(C)(C)O3 result="> 100 µM"

Which IC50 reading was recorded for the compound COc1cc2c3cc(C=O)c4c(c3n(Cc3cccc(Cl)c3)c2cc1OC)C=CC(C)(C)O4 ?
> 100 µM

----------
System: DLD-1
Assay: cells
Type: functional, cell-based
Settings: Homo sapiens, DLD-1, 24 h
pIC50: −log10 of the molar value.
So I've got a bunch of molecules here, and I need their pIC50 values.

Observe how each entry below is paired with its result.
compound_structure_string=C#CCn1c2cc(OC)c(OC)cc2c2cc(C)c3c(c21)C=CC(C)(C)O3 readout_name=pIC50 result="< 4.00"
compound_structure_string=COc1cc2[nH]c3c4c(c(C=O)cc3c2cc1OC)OC(C)(C)C=C4 readout_name=pIC50 result="< 4.00"

Now take the following molecule into account.
Which pIC50 reading was recorded for the molecule COc1ccc2c(c1)c1cc(C=O)c3c(c1n2Cc1ccccc1)C=CC(C)(C)O3 ?
< 4.00

----------
System: HepG2
Assay: cells
Format: functional, cell-based
Conditions: Homo sapiens, HepG2, 24 h
pIC50: −log10 of the molar value.
Readout Name: pIC50

compound_structure_string=C#CCn1c2ccc(OC)cc2c2cc(C)c3c(c21)C=CC(C)(C)O3 result="< 4.00"

Hi there! I need pIC50 for each item below, if you can.
1. COc1cc2c3cc(C=O)c4c(c3n(Cc3cccc(Cl)c3)c2cc1OC)C=CC(C)(C)O4
2. COc1cccc(Cn2c3cc(OC)c(OC)cc3c3cc(C=O)c4c(c32)C=CC(C)(C)O4)c1

< 4.00
< 4.00

Taken from ChEMBL document CHEMBL4665628.
